subject of test: sAC in 4-4 cells (HEK293 cells that stably overexpress sACt) (Rattus norvegicus, UniProt Q9Z286)
Construct: HEK293 cells that stably overexpress sACt; expressed in transfected cells
Sequence (Q9Z286 1-469 limits assumed): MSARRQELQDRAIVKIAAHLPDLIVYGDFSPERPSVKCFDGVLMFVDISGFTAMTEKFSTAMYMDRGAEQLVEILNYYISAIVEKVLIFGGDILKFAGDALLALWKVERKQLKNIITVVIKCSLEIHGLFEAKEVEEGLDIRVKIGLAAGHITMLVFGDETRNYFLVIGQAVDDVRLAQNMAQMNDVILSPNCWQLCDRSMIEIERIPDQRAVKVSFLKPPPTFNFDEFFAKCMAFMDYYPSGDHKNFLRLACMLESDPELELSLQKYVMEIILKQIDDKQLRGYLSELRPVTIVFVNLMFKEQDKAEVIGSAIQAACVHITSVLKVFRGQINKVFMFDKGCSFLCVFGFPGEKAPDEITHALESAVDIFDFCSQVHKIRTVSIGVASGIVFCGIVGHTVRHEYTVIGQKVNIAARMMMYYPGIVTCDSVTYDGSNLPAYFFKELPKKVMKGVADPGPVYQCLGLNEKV
experiment notes: cellular adenylyl cyclase activity assay (cAMP accumulation) in sAC overexpressing 4-4 cells
Format: cell-based, human
condition context: 10 min preincubation, 500 μM IBMX 5 min, 37°C
measurement kind: pIC50
When answering, recall that pIC50 equals minus log10 of the concentration in mol/L, and write that number alone.

Query: If you can, please state the reported pIC50 value of `COC(=O)[C@H]1COCCN1CCOc1ccccc1Cc1cn(C(F)F)nc1-c1cc(Cl)nc(N)n1` .
Response: 8.64
